- Target Desc: rat brain farnesyl protein transferase (Rattus norvegicus, UniProt Q02293+Q04631)
- Construct: 40-fold purified rat brain farnesyl protein transferase; from tissue; host or cells: rat brain
- Assay Method Text: Protein:farnesyltransferase (PFT/FPT) inhibitory activity assay
- Format: biochemical
- Test Settings: Hepes/5 mM PO4^-3, pH 7.4; read-out: Farnesyl Protein Transferase Inhibition, Hepes/5 mM PO4^-3, IC50
Quantity Kind: IC50 (nM)

Consider the following illustrative entries.
{"Smiles Text": "O=C(N[C@@H](Cc1c[nH]cn1)C(=O)NCCO)C(Cc1cccc2ccccc12)Cc1cccc2ccccc12", "Target Desc": "rat brain farnesyl protein transferase (Rattus norvegicus, UniProt Q02293+Q04631)", "IC50 [nM]": 3700}
{"Smiles Text": "COC(=O)[C@H](Cc1c[nH]cn1)NCC(Cc1cccc2ccccc12)Cc1cccc2ccccc12", "Target Desc": "rat brain farnesyl protein transferase (Rattus norvegicus, UniProt Q02293+Q04631)", "IC50 [nM]": 360}

A. N#CCCOC(=O)[C@H](Cc1c[nH]cn1)NC(=O)C(Cc1cccc2c1CCCC2)Cc1cccc2c1CCCC2
B. COC(=O)[C@@H](Cc1c[nH]cn1)NC(=O)C(Cc1cccc2ccccc12)Cc1cccc2ccccc12
Request: Please choose the item with the lower IC50 value from this pair: A and B Please indicate the selected item by its label.
Response: A

* * *

- Target Desc: rat brain farnesyl protein transferase (Rattus norvegicus, UniProt Q02293+Q04631)
- Construct: 40-fold purified rat brain farnesyl protein transferase; from tissue; host or cells: rat brain
- Assay Method Text: Protein:farnesyltransferase (PFT/FPT) inhibitory activity assay
- Assay type: biochemical
- Test Settings: Hepes/5 mM PO4^-3, pH 7.4; read-out: Farnesyl Protein Transferase Inhibition, Hepes/5 mM PO4^-3, IC50
Quantity Kind: IC50 (nM)

{"Compound": "COCn1cncc1C[C@H](NC(=O)C(Cc1cccc2ccccc12)Cc1cccc2ccccc12)C(=O)OC [Example 60]", "Numeric Result": 1000}

I. O=C(N[C@@H](Cc1c[nH]cn1)C(=O)NCCOCc1ccccc1)C(Cc1cccc2c1CCCC2)Cc1cccc2c1CCCC2 [Example 38]
II. O=C(N[C@@H](Cc1c[nH]cn1)C(=O)OCc1ccccc1)C(Cc1cccc2ccccc12)Cc1cccc2ccccc12 [Example 10]
III. O=C(N[C@@H](Cc1c[nH]cn1)C(=O)OCCc1ccccc1)C(Cc1cccc2ccccc12)Cc1cccc2ccccc12 [Example 53]
Request: Ordering: ascending IC50. Put the labels in the order asked and list them.
Response: III, I, II
(III: 60 nM, I: 850 nM, II: 2900 nM)

a. C=CCOC(=O)[C@H](Cc1c[nH]cn1)NC(=O)C(Cc1cccc2ccccc12)Cc1cccc2ccccc12 [Example 15]
b. CCCCc1nc(COC(=O)[C@H](Cc2c[nH]cn2)NC(=O)C(Cc2cccc3ccccc23)Cc2cccc3ccccc23)c[nH]1 [Example 13]
c. CCSCCNC(=O)[C@H](Cc1c[nH]cn1)NC(=O)C(Cc1cccc2ccccc12)Cc1cccc2ccccc12 [Example 26]
Request: Ordering: ascending IC50. Put the labels in the order asked and list them.
Response: a, b, c

* * *

- Target Desc: rat brain farnesyl protein transferase (Rattus norvegicus, UniProt Q02293+Q04631)
- Construct: 40-fold purified rat brain farnesyl protein transferase; from tissue; host or cells: rat brain
- Assay Method Text: Protein:farnesyltransferase (PFT/FPT) inhibitory activity assay
- Assay type: biochemical
- Test Settings: Hepes/5 mM PO4^-3, pH 7.4; read-out: Farnesyl Protein Transferase Inhibition, Hepes/5 mM PO4^-3, IC50
pIC50: −log10 of the molar value. Where a name gives a salt, the structure may show the parent alone.
Quantity Kind: pIC50

{"Compound": "N#CCCNC(=O)[C@H](Cc1c[nH]cn1)NC(=O)C(Cc1cccc2ccccc12)Cc1cccc2ccccc12", "pIC50": 6.15}
{"Compound": "O=C(N[C@@H](Cc1c[nH]cn1)C(=O)OCCO)C(Cc1cccc2ccccc12)Cc1cccc2ccccc12 [Example 42, trifluoroacetate salt]", "pIC50": 5.89}
{"Compound": "O=C(N[C@@H](Cc1c[nH]cn1)C(=O)OCCSSCCO)C(Cc1cccc2ccccc12)Cc1cccc2ccccc12", "pIC50": 6.00}

1. O=C(N[C@@H](Cc1c[nH]cn1)C(=O)NCCn1ccnc1)C(Cc1cccc2ccccc12)Cc1cccc2ccccc12
2. O=C(N[C@H](CO)Cc1c[nH]cn1)C(Cc1cccc2ccccc12)Cc1cccc2ccccc12
3. N#CCCOC(=O)[C@H](Cc1c[nH]cn1)NC(=O)C(CC1CCCC2CCCCC21)CC1CCCC2CCCCC21 (some centres unmarked)
4. O=C(N[C@H](Cc1c[nH]cn1)C(=O)O)C(Cc1cccc2ccccc12)Cc1cccc2ccccc12
Request: Ordering: ascending pIC50. Put the labels in the order asked and list them.
Response: 4, 2, 1, 3
(4: 4.71, 2: 5.47, 1: 5.82, 3: 6.49)
